ASSAY NOTES: Plasma pharmacokinetic study
Format: in vivo, BALB/c-nude mice
EXPERIMENTAL PARAMETERS: BALB/c-nude, mouse, iv, 0.5 mg/kg ICG

[
  {
    "COMPOUND": "CC1(C)C(/C=C/C=C/C=C/C=C2\\N(CCCCS(=O)(=O)O)c3ccc4ccccc4c3C2(C)C)=[N+](CCCCS(=O)(=O)[O-])c2ccc3ccccc3c21 [Free ICG, indocyanine green]",
    "clearance / mL/min/kg": 18
  }
]

* * *

ASSAY NOTES: Plasma pharmacokinetic study
Type: in vivo, BALB/c-nude mice
EXPERIMENTAL PARAMETERS: BALB/c-nude, mouse, iv, 0.5 mg/kg ICG

[
  {
    "MOLECULE": "CC1(C)C(/C=C/C=C/C=C/C=C2\\N(CCCCS(=O)(=O)O)c3ccc4ccccc4c3C2(C)C)=[N+](CCCCS(=O)(=O)[O-])c2ccc3ccccc3c21 [Free ICG, indocyanine green]",
    "Cmax [ng/mL]": 134
  }
]

* * *

ASSAY NOTES: Plasma pharmacokinetic study
Type: in vivo, BALB/c-nude mice
EXPERIMENTAL PARAMETERS: BALB/c-nude, mouse, iv, 0.5 mg/kg ICG
QUANTITY NAME: Tmax (min)

[
  {
    "COMPOUND": "CC1(C)C(/C=C/C=C/C=C/C=C2\\N(CCCCS(=O)(=O)O)c3ccc4ccccc4c3C2(C)C)=[N+](CCCCS(=O)(=O)[O-])c2ccc3ccccc3c21 [Free ICG, indocyanine green]",
    "MEAS VALUE": 5
  }
]

Source: paper PMC6831285
